VALUE KIND: logP

[[record]]
compound = "ClCC1(CCl)C2C(Cl)C(Cl)(Cl)C1(C(Cl)Cl)CC2(Cl)Cl (stereo not given)"
observed_result = 6.26

[[record]]
compound = "ClCC1(CCl)[C@H]2CC(Cl)(Cl)[C@]1(CCl)[C@@H](Cl)[C@@H]2Cl"
observed_result = 5.23

[[record]]
compound = "ClCC12CCC(C(Cl)C1(Cl)Cl)C2(C(Cl)Cl)C(Cl)Cl (stereo not given)"
observed_result = 5.49

[[record]]
compound = "ClCC1(C(Cl)Cl)C(=C(Cl)Cl)C2CC1C(Cl)(Cl)C2Cl (stereo not given)"
observed_result = 5.49

[[record]]
compound = "ClC[C@@]1(C(Cl)Cl)C2[C@@H](Cl)[C@H](Cl)C1(C(Cl)Cl)[C@@H](Cl)[C@@H]2Cl"
observed_result = 5.89


Provenance of the data: the SangsterLogP compilation
